# system_under_test: UniProtKB Q92630
# Sequence (Q92630 whole entry): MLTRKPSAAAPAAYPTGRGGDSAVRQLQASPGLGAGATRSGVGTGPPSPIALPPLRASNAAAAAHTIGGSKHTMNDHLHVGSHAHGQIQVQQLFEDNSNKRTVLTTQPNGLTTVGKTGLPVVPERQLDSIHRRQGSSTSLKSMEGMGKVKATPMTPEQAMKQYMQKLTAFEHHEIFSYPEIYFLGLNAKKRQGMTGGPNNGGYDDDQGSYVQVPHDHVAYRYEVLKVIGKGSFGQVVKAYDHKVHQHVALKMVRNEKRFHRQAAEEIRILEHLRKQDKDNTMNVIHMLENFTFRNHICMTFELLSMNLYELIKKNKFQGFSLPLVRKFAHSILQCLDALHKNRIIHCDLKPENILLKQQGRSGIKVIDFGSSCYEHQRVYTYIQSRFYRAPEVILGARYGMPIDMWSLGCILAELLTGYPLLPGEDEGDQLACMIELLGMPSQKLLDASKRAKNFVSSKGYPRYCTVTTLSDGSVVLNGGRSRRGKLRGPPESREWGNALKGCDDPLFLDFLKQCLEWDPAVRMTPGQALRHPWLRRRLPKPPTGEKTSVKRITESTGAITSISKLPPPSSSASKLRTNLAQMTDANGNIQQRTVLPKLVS
# assay_info: Protein kinase assay
# Assay type: biochemical
# assay_conditions: 15 μmol/L ATP; read-out: IC50 DYRK2
readout_kind: pIC50
When answering, recall that pIC50 equals minus log10 of the concentration in mol/L, and write that number alone.

Input line: Input CN1C(=O)N=C(Nc2nc(Cc3ccc4c(c3)OCO4)cn2C)C1=O , output reported pIC50.
Output line: 5.15

Input line: Input NC1=NC(=Cc2cc(Br)cs2)C(=O)N1 , output reported pIC50.
Output line: 5.89

Input line: Input NC1=NC(=Cc2cccc(Br)c2)C(=O)N1 , output reported pIC50.
Output line: 5.66

Input line: Input CN1C(=N)N=C(Nc2nc(Cc3ccc4c(c3)OCO4)cn2C)C1=O , output reported pIC50.
Output line: 5.21

Input line: Input NC1=NC(=O)/C(=C2\CCNC(=O)c3[nH]c(Br)cc32)N1 [Hymenialdisine, reference compound] , output reported pIC50.
Output line: 8.51

Input line: Input COc1cc(/C=C2\N=C(N)NC2=O)ccc1O [Polyandrocarpamine A] , output reported pIC50.
Output line: 6.38

Input line: Input COc1cc(/C=C2\N=C(N)NC2=O)ccc1O [PAC12, polyandrocarpamine A] , output reported pIC50.
Output line: 6.62

Input line: Input COc1cc(/C=C2\N=C(N)NC2=O)ccc1O [PAC1, polyandrocarpamine A] , output reported pIC50.
Output line: 6.85

* * *

# system_under_test: CDK2/cyclin A (Homo sapiens, UniProt P24941)
# Construct: made in house
# assay_info: Protein kinase assay
# Format: biochemical
# assay_conditions: 15 μmol/L ATP; read-out: IC50 CDK2/cyclin A
pIC50: −log10 of the molar value.
readout_kind: pIC50

NC1=NC(=Cc2c[nH]nc2-c2ccccc2)C(=O)N1; < 5.00
NC1=NC(=Cc2ccccc2N2CCOCC2)C(=O)N1; < 5.00
CN1C(=N)N=C(Nc2nc(Cc3ccc4c(c3)OCO4)cn2C)C1=O; < 5.00

Input line: Provide pIC50, system CDK2/cyclin A (Homo sapiens, UniProt P24941), entry O=C1NC(Nc2ccccc2)=N/C1=C\c1ccc2c(c1)OCO2 [Leucettine L41, reference compound]
Output line: < 5.00

Input line: Provide pIC50, system CDK2/cyclin A (Homo sapiens, UniProt P24941), entry NC1=NC(=Cc2cccc(Br)c2)C(=O)N1
Output line: ≤ 5.00

Input line: Provide pIC50, system CDK2/cyclin A (Homo sapiens, UniProt P24941), entry NC1=N/C(=C\c2ccc(O)c(O)c2)C(=O)N1
Output line: < 5.00

Input line: Provide pIC50, system CDK2/cyclin A (Homo sapiens, UniProt P24941), entry CN(C)CCOc1ccc(C=C2N=C(N)NC2=O)cc1
Output line: < 5.00

Input line: Provide pIC50, system CDK2/cyclin A (Homo sapiens, UniProt P24941), entry NC1=NC(=Cc2ccc(-n3ccnc3)cc2)C(=O)N1
Output line: < 5.00

Input line: Provide pIC50, system CDK2/cyclin A (Homo sapiens, UniProt P24941), entry Cc1ccc(C=C2N=C(N)NC2=O)s1
Output line: < 5.00

Input line: Provide pIC50, system CDK2/cyclin A (Homo sapiens, UniProt P24941), entry NC1=NC(=Cc2cc(Br)cs2)C(=O)N1
Output line: < 5.00

Input line: Provide pIC50, system CDK2/cyclin A (Homo sapiens, UniProt P24941), entry NC1=NC(=O)/C(=C2\CCNC(=O)c3[nH]c(Br)cc32)N1 [Hymenialdisine, reference compound]
Output line: 7.96

Input line: Provide pIC50, system CDK2/cyclin A (Homo sapiens, UniProt P24941), entry COc1cc(C=C2N=C(N)NC2=O)ccc1F
Output line: < 5.00

* * *

Below is a list of entries, each paired with its recorded IC50 value.
# system_under_test: CDK1/cyclin B
# assay_info: Protein kinase assay
# assay_conditions: 15 μmol/L ATP

Input line: Input Cc1ccc(C=C2N=C(N)NC2=O)s1 [PAC10] , output reported IC50.
Output line: > 10 µM

Input line: Input CN1C(=O)N=C(Nc2nc(Cc3ccc4c(c3)OCO4)cn2C)C1=O [Clathridine] , output reported IC50.
Output line: > 10 µM

Input line: Input NC1=NC(=Cc2cc(Br)cs2)C(=O)N1 [PAC11] , output reported IC50.
Output line: > 10 µM

Input line: Input NC1=NC(=Cc2ccc(-n3ccnc3)cc2)C(=O)N1 [PAC8] , output reported IC50.
Output line: > 10 µM

Input line: Input NC1=N/C(=C\c2ccc(O)c(O)c2)C(=O)N1 [Polyandrocarpamine B] , output reported IC50.
Output line: > 10 µM

* * *

# system_under_test: CLK2 (Mus musculus, UniProt O35491)
# Sequence (O35491 whole entry): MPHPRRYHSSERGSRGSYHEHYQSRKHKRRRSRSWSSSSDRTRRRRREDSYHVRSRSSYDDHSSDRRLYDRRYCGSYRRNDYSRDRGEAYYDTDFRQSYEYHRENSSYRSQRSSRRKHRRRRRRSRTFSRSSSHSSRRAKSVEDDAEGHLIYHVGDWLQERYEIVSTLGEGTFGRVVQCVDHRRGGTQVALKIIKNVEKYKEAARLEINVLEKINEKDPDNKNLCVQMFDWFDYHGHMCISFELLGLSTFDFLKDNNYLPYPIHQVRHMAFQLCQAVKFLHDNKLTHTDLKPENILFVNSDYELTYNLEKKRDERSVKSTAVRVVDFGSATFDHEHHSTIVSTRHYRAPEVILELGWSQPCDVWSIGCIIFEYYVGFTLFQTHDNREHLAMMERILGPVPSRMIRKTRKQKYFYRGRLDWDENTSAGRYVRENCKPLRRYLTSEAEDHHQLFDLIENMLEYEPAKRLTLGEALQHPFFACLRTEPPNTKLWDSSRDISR
# assay_info: Protein kinase assay
# assay_conditions: IC50 CLK2, 15 μmol/L ATP
Below is a list of entries, each paired with its recorded IC50 value.
Quick reminder: number only, in nM, skip the unit.

Input line: Input COc1cc(/C=C2\N=C(N)NC2=O)ccc1O [Polyandrocarpamine A] , output reported IC50.
Output line: 1200

Input line: Input NC1=NC(=O)/C(=C2\CCNC(=O)c3[nH]cc(Br)c32)N1 [Spongiacidin B] , output reported IC50.
Output line: 7.3

Input line: Input CN1C(=O)/C(=C/c2ccc3c(c2)OCO3)N=C1N [Leucettamine B] , output reported IC50.
Output line: 910

Input line: Input NC1=N/C(=C\c2ccc(O)c(O)c2)C(=O)N1 [PAC2, polyandrocarpamine B] , output reported IC50.
Output line: 2500

Input line: Input NC1=N/C(=C\c2ccc(O)c(O)c2)C(=O)N1 [Polyandrocarpamine B] , output reported IC50.
Output line: 4900

Input line: Input CN1C(=N)N=C(Nc2nc(Cc3ccc4c(c3)OCO4)cn2C)C1=O [Clathridimine] , output reported IC50.
Output line: 6100

Input line: Input COc1cc(/C=C2\N=C(N)NC2=O)ccc1O [PAC12, polyandrocarpamine A] , output reported IC50.
Output line: 640

* * *

Below is a list of entries, each paired with its recorded IC50 value.
# system_under_test: LmCK1 (Leishmania major)
# Sequence (Q9NHE1 entry or part of it): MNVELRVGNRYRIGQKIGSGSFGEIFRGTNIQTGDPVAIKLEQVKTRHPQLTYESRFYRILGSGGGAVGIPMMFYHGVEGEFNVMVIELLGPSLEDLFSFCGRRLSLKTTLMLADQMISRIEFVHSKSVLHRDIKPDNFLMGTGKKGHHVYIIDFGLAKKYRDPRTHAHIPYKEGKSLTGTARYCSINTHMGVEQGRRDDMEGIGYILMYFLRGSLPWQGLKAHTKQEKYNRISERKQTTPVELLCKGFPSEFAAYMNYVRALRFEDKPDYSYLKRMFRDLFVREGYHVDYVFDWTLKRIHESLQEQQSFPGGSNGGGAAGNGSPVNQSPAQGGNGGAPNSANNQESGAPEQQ
# assay_info: Protein kinase assay
# Type: biochemical
# assay_conditions: 15 μmol/L ATP; read-out: IC50 LmCK1

NC1=NC(=Cc2cccc(Br)c2)C(=O)N1; > 10 µM
NC1=NC(=O)/C(=C2\CCNC(=O)c3[nH]cc(Br)c32)N1; 0.025 µM
NC1=NC(=Cc2ccc(-n3ccnc3)cc2)C(=O)N1; > 10 µM
NC1=NC(=Cc2c[nH]nc2-c2ccccc2)C(=O)N1; 0.63 µM
NC1=NC(=Cc2ccccc2N2CCOCC2)C(=O)N1; > 10 µM
NC1=NC(=O)/C(=C2\CCNC(=O)c3[nH]c(Br)cc32)N1 [Hymenialdisine, reference compound]; 0.0025 µM
NC1=N/C(=C\CCNC(=O)c2cc(Br)c(Br)[nH]2)C(=O)N1 [Dispacamide]; > 10 µM
CN(C)CCOc1ccc(C=C2N=C(N)NC2=O)cc1; > 10 µM
NC1=N/C(=C\c2ccc(O)c(O)c2)C(=O)N1; > 10 µM
NC1=NC(=Cc2cc(Br)cs2)C(=O)N1; > 10 µM

Input line: Input CN1C(=O)N=C(Nc2nc(Cc3ccc4c(c3)OCO4)cn2C)C1=O , output reported IC50.
Output line: > 10 µM

* * *

# system_under_test: TbCLK1 (Trypanosoma brucei brucei, UniProt Q382U0)
# Sequence (Q382U0 entry or part of it): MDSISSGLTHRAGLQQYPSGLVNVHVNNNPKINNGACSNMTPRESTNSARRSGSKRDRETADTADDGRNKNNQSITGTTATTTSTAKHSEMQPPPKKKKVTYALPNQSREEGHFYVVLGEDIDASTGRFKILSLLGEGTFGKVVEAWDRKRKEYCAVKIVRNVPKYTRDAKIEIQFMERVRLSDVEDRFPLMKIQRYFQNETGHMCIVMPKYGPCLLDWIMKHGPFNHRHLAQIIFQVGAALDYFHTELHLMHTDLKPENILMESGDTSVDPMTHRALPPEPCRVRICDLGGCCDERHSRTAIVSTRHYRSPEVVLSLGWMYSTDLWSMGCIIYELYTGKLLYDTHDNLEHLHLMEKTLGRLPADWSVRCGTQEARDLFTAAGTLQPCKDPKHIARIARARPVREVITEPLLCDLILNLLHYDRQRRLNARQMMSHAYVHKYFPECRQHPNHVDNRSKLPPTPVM
# assay_info: Protein kinase assay
# Format: biochemical
# assay_conditions: 15 μmol/L ATP; read-out: IC50 TbCLK1
Below is a list of entries, each paired with its recorded IC50 value.
Quick reminder: number only, in nM, skip the unit.

NC1=NC(=O)/C(=C2\CCNC(=O)c3[nH]c(Br)cc32)N1 [Hymenialdisine, reference compound]; 530

For the next question, use this compound.
Input line: Input NC1=NC(=O)/C(=C2\CCNC(=O)c3[nH]cc(Br)c32)N1 , output reported IC50.
Output line: 710

* * *

# system_under_test: CLK2 (Mus musculus)
# assay_info: Protein kinase assay
# assay_conditions: read-out: IC50 CLK2; 15 μmol/L ATP
pIC50: −log10 of the molar value.
Below is a list of entries, each paired with its recorded pIC50 value.

Cc1ccc(C=C2N=C(N)NC2=O)s1; < 5.00
NC1=NC(=Cc2cc(Br)cs2)C(=O)N1; ≤ 5.00
NC1=NC(=Cc2c[nH]nc2-c2ccccc2)C(=O)N1; < 5.00
NC1=NC(=Cc2ccccc2N2CCOCC2)C(=O)N1; < 5.00
COc1ccc(C=C2N=C(N)NC2=O)cc1F; < 5.00

Input line: Input CN(C)CCOc1ccc(C=C2N=C(N)NC2=O)cc1 , output reported pIC50.
Output line: < 5.00

* * *

# system_under_test: CLK1 (Mus musculus, UniProt P22518)
# Sequence (P22518 whole entry): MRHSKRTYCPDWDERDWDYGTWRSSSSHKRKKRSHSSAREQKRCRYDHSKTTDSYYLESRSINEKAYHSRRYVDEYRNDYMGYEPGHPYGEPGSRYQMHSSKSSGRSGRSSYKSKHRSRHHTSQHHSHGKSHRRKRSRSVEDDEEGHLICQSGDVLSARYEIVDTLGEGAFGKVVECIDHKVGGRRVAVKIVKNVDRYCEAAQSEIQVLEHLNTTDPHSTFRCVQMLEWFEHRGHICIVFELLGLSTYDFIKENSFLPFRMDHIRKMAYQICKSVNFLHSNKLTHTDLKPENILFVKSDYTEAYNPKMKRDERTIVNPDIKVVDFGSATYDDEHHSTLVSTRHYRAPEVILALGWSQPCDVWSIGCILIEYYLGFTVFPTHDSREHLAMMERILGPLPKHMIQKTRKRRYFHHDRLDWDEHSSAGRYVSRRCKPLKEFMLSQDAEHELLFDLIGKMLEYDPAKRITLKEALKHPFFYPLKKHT
# assay_info: Protein kinase assay
# assay_conditions: read-out: IC50 CLK1; 15 μmol/L ATP
readout_kind: IC50

Example entries begin here.
CN(C)CCOc1ccc(C=C2N=C(N)NC2=O)cc1; > 10 µM
NC1=NC(=Cc2ccccc2N2CCOCC2)C(=O)N1; > 10 µM
NC1=NC(=Cc2c[nH]nc2-c2ccccc2)C(=O)N1; ≥ 10 µM
NC1=NC(=Cc2ccc(-n3ccnc3)cc2)C(=O)N1; > 10 µM
COc1ccc(C=C2N=C(N)NC2=O)cc1F; ≥ 10 µM

Input line: Input Cc1ccc(C=C2N=C(N)NC2=O)s1 , output reported IC50.
Output line: > 10 µM
